This collection of values is drawn from the supplement of paper PMC9170038.

Known apparent KD of MS2 coat protein of a selection of sequences
Test system: MS2 coat protein
METHOD NOTES: apparent KD of MS2 coat protein; designed switch direction (-1 OFF switch, 1 ON switch): -1; higher = weaker reporter binding
APPLIED CONDITIONS: input ligand: microRNA oligo, concentration not stated
Value expressed in nM; do not type the unit.

# SEQ TEXT, TARGET ENTITY, apparent KD of MS2 coat protein, nM
rows = [
    ("GUCAGCUCGUGAGGAUAUACAUGCGUGCUUCGGCACGAAUUUAAGAUCACAUGAGGAUCACCCAUGUAGAAGGUACGAGCUGAC [ENG2/3-C1] (Eterna round: R96, puzzle: Exclusion NG 2)", "MS2 coat protein", 646),
    ("GGAUAAAACCGAGGAUAUACGUAUCACUAACGAGUAGAAGGCGGACAUGAGGAUCACCCAUGUGAGUUCUCAAUAAGAAACACG [Prohibition 64 - Jieux - Exclusion NG 1] (Eterna round: R96, puzzle: Exclusion NG 1)", "MS2 coat protein", 85.1),
]

Entry under review: AACAGAAAAGAAAUAAAUAACAUGAGGAUCACCCAUGUCAACGGGUAAGAGCUCAACGAGCUGCGAGUCUUACUCAA [Enreaerre] (Eterna round: R96, puzzle: Sensor v2, turn-off variant) . Reported apparent KD of MS2 coat protein? 17.5

Entry under review: UGAGUGCUGCGAGGAUAUACAUGAGGAUCACCCAUGUUUACCUGUGAGGCAAAGCCUCACAGGUUGUAGAAGGCGCAGUACUCU [Mat - Exclusion NG 2 - Mod of JL - D41] (Eterna round: R96, puzzle: Exclusion NG 2) . Reported apparent KD of MS2 coat protein? 11.3

So what does the record say about apparent KD of MS2 coat protein for AAAAAAAAGAUAGGAUAUUAGAAAAAAAUGGUGAUAGAGACAUGAGGAUCACCCAUGUAAAAAAAUAAGAAGGGUCAAAAAAAA [AK ExNG2-V2-5] (Eterna round: R96, puzzle: Exclusion NG 2) ? 298

// query apparent KD of MS2 coat protein value for entry UUGCAGUCGUCAGGAUAUAGUAUUACGGCCUUUCAUUUCUUCAUACAUGAGGAUCACCCAUGUCGCUAGAAGGGAUUAUCGCUU [salish99_ExNG2_r04_107] (Eterna round: R96, puzzle: Exclusion NG 2) 14.6

Report apparent KD of MS2 coat protein for GUGUACAGAGGAUAUAUAUGGGCAUGGAAACAUGCAACUUCACAUGAGGAUCACCCAUGUAGAAGGCUGUACAC [Ex2: 712] (Eterna round: R96, puzzle: Exclusion 2) please. 23

# input sequence: UGUUGUUACGUAGGAUAUCCACCAACAGGUGGAAGGAUAUGUACGCAGAAGGUUCGCCAACAGGCGGAGAAGGACGGGUUAACA [pwkr exNG2 2xF7 2xFMN.27] (Eterna round: R96, puzzle: Exclusion NG 2) ; wanted: its apparent KD of MS2 coat protein 473

Entry CUUUUGUGAGGAUAUUAGUAGUAAAUAAUUAAAAUUACUACUGAGAAGGCACAUGAGGAUCACCCAUGUUCCUC [salish99_ex4_r3_056] (Eterna round: R96, puzzle: Exclusion 4) : reported apparent KD of MS2 coat protein = ? 33.2

For the sequence shown here, ACAUGUCAUUGAGGAUAUUGCAAACAUGAGGAUCACCCAUGUAAACGGAUGCUCUUACGUGGGUUCGAGAAGGCGAUGUACAUU [Ex NG2 #93] (Eterna round: R96, puzzle: Exclusion NG 2) , give the reported apparent KD of MS2 coat protein. 39.8

Form field: reported apparent KD of MS2 coat protein of CUCGGACAUGAGGAUCACCCAUGUGAGGAUAUGAUGCGAUCGUCGAAAGACGAUAGCAUCAGAAGGUACAAAUG [Fiskers Ex 1 - 22] (Eterna round: R96, puzzle: Exclusion 1) 36.2

# lookup: apparent KD of MS2 coat protein of UAUAUAUAGUAAGGAUAUGUAUUAAUUUUUUAAACAGAAGGUACUGACAUGAGGAUCACCCAUGUUUUAGUGUGGGCAUGUAGA [JMF's solution 86] (Eterna round: R96, puzzle: Exclusion NG 1) 65.7

Look up apparent KD of MS2 coat protein for this sequence: AUGGGUACUUUCGGAGCGACAUGAGGAUCACCCAUGUAUAUUGAGGAUAUCCACUGCUAAGGACGGGAGAAGGCAGUGUACUGU [Ex NG3 #82] (Eterna round: R96, puzzle: Exclusion NG 3) 42.9

Data request, read-out apparent KD of MS2 coat protein, for CUAAUAGCAGCAGGAUAUCUCACAUGAGGAUCACCCAUGUGGGACCGCCACCUCGUGUGUAAAGAAGAGAAGGGCUCGCACUCC [Eternabot solution 6] (Eterna round: R96, puzzle: Exclusion NG 2) 12.8

Which apparent KD of MS2 coat protein is reported for this sequence? UGUUGUUACGCAGGAUAUGAGGAUCACCCAUAUUAGGAUAUCGAAAGAGAAGUUCUGAGGAUCACCCAGAAGGGCGGGUUAACA [pwkr exNG2 2xF5 2xFMN.35] (Eterna round: R96, puzzle: Exclusion NG 2) 37.8

What does the data say about its apparent KD of MS2 coat protein? Entry: AGAGCCGUUGUAGGAUAUGCCCUCGGGUGAUGCCGGUCGCCACAUGAGGAUCACCCAUGUAGCGGGCAGAAGGGCAAACUCAGU [Eternabot solution 43] (Eterna round: R96, puzzle: Exclusion NG 2) 13.4

# input sequence: ACAUGAGGAUCACCCAUGUUAUGUUGGGUACUAAAUUAUUCGUAGGAUAUCGUAGCUAGUUUGUGCGAGAAGGACGCAGUUUUU [JR_ExcNG3_Sub060] (Eterna round: R96, puzzle: Exclusion NG 3) ; wanted: its apparent KD of MS2 coat protein 202

I have this sequence here, GCAGCGUAGUCCAAAUAGGACAUACAUGAGGAUCACCCAUGUCAGGAUAUGGUCUGGAUUACAGGCCAGAAGGGACAAAGCUGC [Eli exng3 - 003] (Eterna round: R96, puzzle: Exclusion NG 3) , and I need its recorded apparent KD of MS2 coat protein. 15.8
